Source listed as the supplement of paper PMC13380429.

Test system: Vero E6 infected with SARS-CoV-2
Assay: morphology score (similarity to uninfected cells); higher = more like uninfected cells
Conditions: 24 h
Entries and their morphology score values follow.

Nc1nc2[nH]cc(CCc3ccc(C(=O)N[C@@H](CCC(=O)O)C(=O)O)cc3)c2c(=O)[nH]1 [pemetrexed] (10 µM): -0.15
Clc1ccc(C(Cn2ccnc2)OCc2ccsc2Cl)c(Cl)c1 (configuration not stated) [tioconazole] (10 µM): -0.0375
Nc1nc(CC(=O)Nc2ccc(CCNC[C@H](O)c3ccccc3)cc2)cs1 [mirabegron] (10 µM): -0.0704
O=C(NO)c1ccc2[nH]c(=O)c(CCCc3ccccc3)nc2c1 (10 µM): -0.0251
NC(=O)c1ccccc1O [salicylamide] (10 µM): -0.114

Qu. Report its morphology score with Vero E6 infected with SARS-CoV-2 as the test system: CC1CCN(CCCC(=O)c2ccc(F)cc2)CC1 [melperone] (10 µM)
Ans. 0.389

Qu. Report its morphology score with Vero E6 infected with SARS-CoV-2 as the test system: CNCCN(C)Cc1c[nH]nc1-c1ccc(O[C@H]2C[C@H](OCCC3CCOCC3)C2)cc1 (10 µM)
Ans. -0.0509

====

Entries and their SARS-CoV-2 infection rate values follow.
System: Vero E6 infected with SARS-CoV-2
Experiment: SARS-CoV-2 infection rate relative to infected DMSO; higher = more infection, active = 60 or less
Conditions: 24 h
# output: bare number, implied unit %

Sample records with SARS-CoV-2 infection rate:
COc1ccccc1NC(=O)OCC1CCN(C(=O)OC(C)(C)C)CC1 (10 µM): 97
COc1ccc(NC(=O)c2ccc(-c3ccc(-c4noc(C)n4)cc3C)cc2)cc1N1CCN(C)CC1 (0.833333 µM): 102
CC1(c2ccccc2)OC(C(=O)O)=CC1=O (stereo not drawn) [acifran] (10 µM): 102
CCS(=O)(=O)N1CCC[C@@H]2CN3CCc4cc(OC)ccc4[C@@H]3C[C@@H]21 (10 µM): 102
C[N+]12CCC(CC1)C(OC(=O)C(O)(c1ccccc1)c1ccccc1)C2 (stereo not drawn) [clidinium] (10 µM): 95

Qu. For Clc1ccc(CO/N=C(\Cn2ccnc2)c2ccc(Cl)cc2Cl)c(Cl)c1 [oxiconazole] (10 µM) , write its SARS-CoV-2 infection rate.
Ans. 114

Qu. For COc1ccc(NS(=O)(=O)c2ccc(/N=N/c3ccc(O)c(C(=O)O)c3)cc2)nn1 [salazodine] (10 µM) , write its SARS-CoV-2 infection rate.
Ans. 113

Qu. For CN1[C@@H]2CC[C@H]1C[C@@H](OC(=O)[C@H](CO)c1ccccc1)C2 [hyoscyamine] (10 µM) , write its SARS-CoV-2 infection rate.
Ans. 90.5

====

Test system: Vero E6 infected with SARS-CoV-2
Experiment: inhibition of SARS-CoV-2 cytopathic effect; higher = more antiviral protection, active = above 15
Conditions: 10000 nM; 48 h
Entries and their inhibition of SARS-CoV-2 cytopathic effect values follow.
# output: bare number, implied unit %

Sample records with inhibition of SARS-CoV-2 cytopathic effect:
COc1cc(OC)c(C(=O)CCCN2CCCC2)c(OC)c1 [buflomedil]: 1.28
O=C(Nc1nc2ccc(NC(=O)C34CC5CC(CC(C5)C3)C4)cc2s1)c1ccccc1: -6.77
CN[C@H]1CN(c2ccc3c(=O)c(C(=O)O)cn(-c4nccs4)c3n2)C[C@@H]1OC [voreloxin]: 0.56
OCCn1cc(-c2cnc3nnn(Cc4ccc5ncccc5c4)c3n2)cn1: 2.26

Below: the item to evaluate.
Qu. For Cc1cc(C(=O)Nc2cc(Oc3ccc4nc(NC(=O)C5CC5)cn4n3)ccc2C)n(C)n1 , write its inhibition of SARS-CoV-2 cytopathic effect.
Ans. -4.87
